Reference for the values: PubChem BioAssay (NCI)

Listed next: entries and their corresponding TGI.
System: MDA-N
EXPERIMENTAL DETAILS: NCI tumour cell line growth inhibition, 48 h

Below: 6 compounds and their reported TGI.
COMPOUND	SUBJECT OF TEST	TGI
O=S1(=O)c2ccccc2C(=NO)c2ccccc21	MDA-N	> 100 µM
O=C1c2c(nc3ccccc3c2-c2ccccc2)CN1Nc1ccccn1	MDA-N	> 100 µM
COC(=O)/C=C1\CCC(C)(C(=O)NS(=O)(=O)c2ccc(C)cc2)C1(C)C (configuration not stated)	MDA-N	> 100 µM
COc1ccc2c(c1)N=C1CSC(c3ccccc3Cl)N1C2 (configuration not stated)	MDA-N	26.8 µM
CC(C)(C)C1(COC(=O)c2ccc(N)cc2)COC1	MDA-N	> 100 µM
C=C(C)C(=O)[C@@]12C(=O)[C@@H](C)CC[C@H]1[C@H](C)C[C@@H]2C=C(C)C	MDA-N	59.1 µM

Here's the next entry for you.
Problem: Fill blank: measured TGI of the compound CN(C)CCNC(=O)c1cccc2nc3c(nc12)-c1ccccc1C3=O is ____.
Solution: 25.7 µM

====

TGI reference
Tested on: HCC-2998 colon
EXPERIMENTAL DETAILS: NCI tumour cell line growth inhibition, 48 h
Dear colleague, please return just the value in µM, with no unit written.

Problem: Quick check: TGI on HCC-2998 colon, item CN(C)Cc1cc(O)c(O)c(CN(C)C)c1 ?
Solution: 81.8

Problem: Recall the recorded TGI for Cc1cc(Cc2cc(C)cc(C(C)(C)C)c2O)c(O)c(C(C)(C)C)c1 with HCC-2998 colon and state it.
Solution: 15.9

Problem: Form: Entry = CCCCc1ccc(Nc2ncc3[nH]cnc3n2)cc1 | System = HCC-2998 colon | TGI = ____
Solution: 37.8

Problem: Under HCC-2998 colon: TGI value of COC(=O)[C@]12CC[C@@H](C)[C@H](C)[C@@H]1C1=CC[C@@H]3[C@@]4(C)C=C(O)C(=O)[C@@]5(C)COC(=C54)C[C@@]3(C)[C@]1(C)CC2 ?
Solution: 26.7

Problem: Which measured TGI belongs to CCCCOP1(=O)C=C(C)C(=C(Cl)Cl)C(C)=C1 (stereo not given) , tested on HCC-2998 colon?
Solution: 52.3

Problem: Hello, I am looking for reported TGI with HCC-2998 colon for O=C(Nc1ccc(Cl)cc1)c1cc(-c2ccc(Cl)cc2)c2sc(=O)[nH]c2n1 . Could you help?
Solution: 14.5

====

Tested on: A549 NSCLC
EXPERIMENTAL DETAILS: NCI tumour cell line growth inhibition, 48 h; in the data active = GI50 below about 0.43 µM; inactive = the rest
Write down the outcome that applies. Available outcomes: TRUE for active, FALSE for inactive

Please review the entries below; each comes with its answer.
In [3]: df
Out[3]:
                               smiles_entry  group
0  N#C[S-].[Nd+3].c1ccc(-c2ccccn2)nc1.c1ccc(-c2ccccn2)nc1.c1ccc(-c2ccccn2)nc1  FALSE
1  CN(C)C(=O)c1cc2cnc(Nc3ccc(-c4csc5c(=O)cc(N6CCOCC6)oc45)cc3)nc2n1C1CCCC1   TRUE

Problem: In this assay, the call recorded for COc1ccc2c(c1)C(=O)/C(=C/c1ncc([N+](=O)[O-])n1C)O2 was what?
Solution: FALSE

Problem: // param item: C#CC(F)(F)[C@]1(O)CC[C@H]2[C@@H]3CCC4=CC(=O)CCC4=C3[C@@H](c3ccc(C(C)=O)cc3)C[C@@]21C ; yields the recorded call
Solution: FALSE

====

Measured TGI values are reported for all entries that follow.
System: OVCAR-4 ovarian
EXPERIMENTAL DETAILS: NCI tumour cell line growth inhibition, 48 h

Answered cases to consult:
                                   compound  measurement
0  C1OC1CO[C@@H]1CO[C@H]2[C@@H]1OC[C@H]2OCC1CO1 (stereo not given in full)     > 100 µM
1  CSC1=C(C#N)C(=O)N(c2ccc(C)cc2)C(=S)C1C#N (stereo not given)     > 100 µM
2  COc1ccc(/C=C\c2cc(OC)c(OC)c(OC)c2)cc1OC(=O)CCC(=O)O     > 100 µM
3                [N-]=[N+]=CC(=O)OCC1SCCCS1     > 100 µM

Problem: Name the reported TGI value associated with the compound CCOC(=O)C(=Cc1ccc(C(=O)OC)cc1)C(=O)OCC
Solution: 14 µM

Problem: Query: TGI; subject: Cc1ccc(C(C2C(=O)N(C)C(=O)N(C)C2=O)C(F)(F)C(=O)N(C)C)cc1 (stereo not given)
Solution: > 100 µM

====

System: BT-549 breast
EXPERIMENTAL DETAILS: NCI tumour cell line growth inhibition, 48 h
Below, each entry is listed alongside its reported TGI.

In [3]: df
Out[3]:
                                   compound  measure  measurement
0  COc1cc(/C=C2\CN(C)C/C(=C\c3cc(CN4CCCCC4)c(O)c(OC)c3)C2=O)cc(CN2CCCCC2)c1O      TGI      16.3 µM
1  CSc1ccc2c3c(n(C[C@H](O)CO)c(=O)c2c1)-c1ccccc1C3=O      TGI      22.8 µM

Problem: For the compound COc1ccc(Cl)cc1NC(=O)C(Br)C(Br)C(=O)O (stereo not given) , what TGI is on record?
Solution: 13 µM

Problem: For C=C1C(=O)O[C@H]2[C@H]1CC/C(COC(=O)CSCC(=O)OC/C1=C/CC[C@@]3(C)O[C@H]3[C@H]3OC(=O)C(=C)[C@@H]3CC1)=C\CC[C@@]1(C)O[C@@H]21 , what is its reported TGI?
Solution: 2.9 µM

Problem: Item O=C1c2c(nc3ccccc3c2-c2ccccc2)CN1Nc1ccccn1 has what recorded TGI?
Solution: > 100 µM

====

Test system: NCI/ADR-RES ovarian
EXPERIMENTAL DETAILS: NCI tumour cell line growth inhibition, 48 h
Classification by TGI follows these ranges: lower (below 7 µM), middle (7 µM to below 40 µM), upper (40 µM or more)

In [3]: df
Out[3]:
                               smiles_entry      subject_of_test   group
0  COc1ccccc1/C=N\N=C(N/N=C/c1ccccc1OC)N/N=C/c1ccccc1OC  NCI/ADR-RES ovarian  middle
1  O=C(c1ccco1)c1c(C(F)(F)F)n([O-])c2ccccc2[n+]1=O  NCI/ADR-RES ovarian  middle
2        O=C(CCl)N1c2ccccc2Sc2ccc3ccccc3c21  NCI/ADR-RES ovarian   lower
3  O=[N+]([O-])c1ccc(N=Nc2c(O)c(S(=O)(=O)O)cc3cc(S(=O)(=O)O)ccc23)cc1  NCI/ADR-RES ovarian   upper

Problem: Would you mind sorting Cc1ccc(SC2=CC(=O)c3nc4ccccc4c4ccnc2c34)cc1 into the appropriate category?
Solution: upper

Problem: Please report the category associated with O=C(CCCCCCCCC(=O)N1C(=O)CC(=O)N(c2cccc(Cl)c2)C1=S)N1C(=O)CC(=O)N(c2cccc(Cl)c2)C1=S , nothing else.
Solution: upper

====

System: HS 578T breast
EXPERIMENTAL DETAILS: NCI tumour cell line growth inhibition, 48 h; in the data active = GI50 below about 0.43 µM; inactive = the rest
Your answer must be one of the following: class 1 = active, class 0 = inactive

Worked cases, answers included:
In [3]: df
Out[3]:
                                   compound    group
0  COc1cccc2c1C(=O)c1c(O)c3c(c(O)c1C2=O)C[C@@](O)(C(=O)CO)C[C@@H]3OC1C[C@H](N)[C@H](O)[C@H](C)O1 (stereo not given in full)  class 1
1  COc1cc(-c2nc3sc4c(c3c(=O)[nH]2)CCCCCC4)cc(OC)c1OC  class 0

Problem: Short answer needed: outcome of this test for CCCCCCCCCCCCSC(=N)N ?
Solution: class 0

Problem: Call for entry C=CC(=O)N[C@H]1CCOC[C@H]1Nc1ncc2cc(-c3c(Cl)c(OC)cc(OC)c3Cl)ccc2n1 :
Solution: class 0

Problem: // param item: O=c1[nH]cnc2[nH]ncc12 ; yields the recorded call
Solution: class 0

====

Tested on: HCT-15 colon
EXPERIMENTAL DETAILS: NCI tumour cell line growth inhibition, 48 h
Documented TGI across a set of molecules
Express it in µM; write the number only.

// solved cases for TGI follow
>>> print(df.to_string())
                                   molecule  result_units  measurement
0  c1cn2cc(-c3ccc4cn[nH]c4c3)nc(Nc3ccc(N4CCOCC4)cc3)c2n1            µM         41.1
1  COc1cc(CC2c3cc(OC)c(OC)cc3CCN2C)c(Oc2cc3c(cc2OC)-c2c(O)c(OC)cc4c2C(C3)N(C)CC4)cc1OC (centres undefined)            µM         33.1

Please find the next molecule below.
Problem: // query TGI value for entry CO[C@@H]1CC(=O)C2(CC(=O)O[C@@H]2/C=C(\C)CCC=C(C)C)C[C@@H]1O (some centres undefined)
Solution: 1.55
